The following variants are listed with their measured protein stability index values.
B1: MMP1 (parent)
chain: MFFKDRFYMRTNPFYPEVELNFIS

Variants of: B1
Experiment: protein stability index of a GFP-peptide fusion (GPS, HEK-293T) (PSI 1-6); higher = more stable;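 note: lentivirally expressed fusions sorted by FACS into six bins by GFP to DsRed ratio, PSI derived from sequencing read proportions per bin multiplied by bin number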
Conditions: c terminus: a fixed tail appended

Mutation list | protein stability index
P13V | 3.62
F22W | 2.09
E19H | 3.47
